System: Ferrochelatase, mitochondrial (Homo sapiens) | Read-out: Kd; note: in the data inactive means no Kd found up to 30 µM
Sequence (P22830 whole entry): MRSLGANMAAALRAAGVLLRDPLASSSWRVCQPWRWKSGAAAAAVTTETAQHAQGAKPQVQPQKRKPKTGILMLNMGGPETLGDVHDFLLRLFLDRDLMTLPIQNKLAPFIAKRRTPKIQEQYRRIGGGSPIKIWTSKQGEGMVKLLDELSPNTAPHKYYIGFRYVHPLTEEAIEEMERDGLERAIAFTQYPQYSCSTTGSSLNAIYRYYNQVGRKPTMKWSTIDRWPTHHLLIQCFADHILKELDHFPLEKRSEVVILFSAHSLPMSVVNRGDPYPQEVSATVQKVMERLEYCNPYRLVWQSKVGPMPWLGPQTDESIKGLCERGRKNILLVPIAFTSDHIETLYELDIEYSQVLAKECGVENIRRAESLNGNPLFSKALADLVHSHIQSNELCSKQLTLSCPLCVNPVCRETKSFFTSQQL
Calls of active or inactive are those of the source.

Given the molecule COc1cc2nccc(Oc3ccc(NC(=O)Nc4cc(C)on4)c(Cl)c3)c2cc1OC , what is its reported Kd? > 30 µM (inactive)

// next record COC(=O)[C@@]1(O)C[C@H]2O[C@]1(C)n1c3ccccc3c3c4c(c5c6ccccc6n2c5c31)C(=O)NC4 [K-252A] > 30 µM (inactive)

Next: O=C1NC(=O)/C(=C/c2ccc3nccc(-c4ccncc4)c3c2)S1 > 30 µM (inactive)

How about OCCn1cc(-c2cnc3nnn(Cc4ccc5ncccc5c4)c3n2)cn1 ? > 30 µM (inactive)
